B1: LINE1-full (parent)
chain: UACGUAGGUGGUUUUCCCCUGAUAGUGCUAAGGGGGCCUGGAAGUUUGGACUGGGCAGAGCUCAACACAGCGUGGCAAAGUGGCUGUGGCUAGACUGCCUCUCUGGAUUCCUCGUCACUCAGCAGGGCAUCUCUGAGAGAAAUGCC

# Variants of: B1
# measurement description: self-cleavage, relative activity (ratio to wild type); higher = more cleavage; in vitro, sequencing; the parent is a self-cleaving ribozyme
Let's look at some variants and their measured self-cleavage.
property measured: self-cleavage

mutation spec | property measured | reported
G8A U104C | self-cleavage | 1.29
U26C A107C | self-cleavage | 1.89
C98A A141G | self-cleavage | 0.17
A24C | self-cleavage | 1.62
G53U U85A | self-cleavage | 0.11
U12G G55A | self-cleavage | 0.15
U81A U115A | self-cleavage | 2.46
U39A A117U | self-cleavage | 1.63
G25A A140G | self-cleavage | 1.49
G40U A65G | self-cleavage | 0.04
U46C A136U | self-cleavage | 1.44
U14C C61G | self-cleavage | 0.1
A6U A67G | self-cleavage | 0.49
A64G A94U | self-cleavage | 0.08
C38U A136G | self-cleavage | 1.89
C19A U85A | self-cleavage | 0.14
A92U A107G | self-cleavage | 0.94
G40U | self-cleavage | 1
A2U U23C | self-cleavage | 0
G54A A77G | self-cleavage | 1.02
U47C U73C | self-cleavage | 1.55
U15A G114U | self-cleavage | 0.97
